subject.of.test: TLR8 (Homo sapiens)
assay.explanation: HEK/293 TLR8 Cell Assay
experimental.setup: HEK cells, R848 agonist 30 uM final concentration, Steady-Glo readout; read-out: TLR8 potency
pIC50: −log10 of the molar value.
Reported pIC50 values are given for each entry in this list.

molecule	pIC50
C[C@H]1C[C@@H](NCCCS(N)(=O)=O)CN(c2ccc(C(F)(F)F)c3ncccc23)C1	> 7.12
C[C@H]1C[C@@H](NC(=O)[C@@H]2CCCN2)CN(c2ccc(C(F)(F)F)c3ncccc23)C1	> 7.12
Cc1ccc(N2C[C@H](CNC(=O)CC3CCN(C)CC3)O[C@H](C)C2)c2cccnc12	> 7.12
CC(C)(O)CNC(=O)[C@H]1CN(c2ccc(C#N)c3nccnc23)C[C@@H](C(F)(F)F)O1 (single isomer, unassigned)	6.82 to 7.12
CN1CCC(O)(CC(=O)N[C@@H]2C[C@H](C(F)(F)F)CN(c3ccc(C(F)(F)F)c4ncccc34)C2)CC1	> 7.12

Prompt: May I ask what pIC50 has been recorded for N#Cc1ccc(N2C[C@H](NCCNC(N)=O)C[C@H](C(F)(F)F)C2)c2cccnc12 ?
Completion: 6.82 to 7.12

Prompt: Further, for C[C@@H]1CN(c2ccc(C#N)c3nccnc23)C[C@H](CN2CC(C)(O)C2)O1 ?
Completion: < 6.82

Prompt: Further, for C[C@H]1C[C@@H](NC(=O)N[C@@H]2CCCNC2)CN(c2ccc(C(F)(F)F)c3ncccc23)C1 ?
Completion: > 7.12

Prompt: Further, for N#Cc1ccc(N2C[C@@H](C(=O)NCC3(F)CCNCC3)O[C@@H](C(F)(F)F)C2)c2nccnc12 (single isomer, unassigned) ?
Completion: > 7.12

* * *

subject.of.test: TLR8 (Homo sapiens, UniProt Q9NR97)
Construct: expressed in transfected cells; host or cells: HEK/293 reporter cells (NF-kB luciferase)
Sequence (Q9NR97 27-1041): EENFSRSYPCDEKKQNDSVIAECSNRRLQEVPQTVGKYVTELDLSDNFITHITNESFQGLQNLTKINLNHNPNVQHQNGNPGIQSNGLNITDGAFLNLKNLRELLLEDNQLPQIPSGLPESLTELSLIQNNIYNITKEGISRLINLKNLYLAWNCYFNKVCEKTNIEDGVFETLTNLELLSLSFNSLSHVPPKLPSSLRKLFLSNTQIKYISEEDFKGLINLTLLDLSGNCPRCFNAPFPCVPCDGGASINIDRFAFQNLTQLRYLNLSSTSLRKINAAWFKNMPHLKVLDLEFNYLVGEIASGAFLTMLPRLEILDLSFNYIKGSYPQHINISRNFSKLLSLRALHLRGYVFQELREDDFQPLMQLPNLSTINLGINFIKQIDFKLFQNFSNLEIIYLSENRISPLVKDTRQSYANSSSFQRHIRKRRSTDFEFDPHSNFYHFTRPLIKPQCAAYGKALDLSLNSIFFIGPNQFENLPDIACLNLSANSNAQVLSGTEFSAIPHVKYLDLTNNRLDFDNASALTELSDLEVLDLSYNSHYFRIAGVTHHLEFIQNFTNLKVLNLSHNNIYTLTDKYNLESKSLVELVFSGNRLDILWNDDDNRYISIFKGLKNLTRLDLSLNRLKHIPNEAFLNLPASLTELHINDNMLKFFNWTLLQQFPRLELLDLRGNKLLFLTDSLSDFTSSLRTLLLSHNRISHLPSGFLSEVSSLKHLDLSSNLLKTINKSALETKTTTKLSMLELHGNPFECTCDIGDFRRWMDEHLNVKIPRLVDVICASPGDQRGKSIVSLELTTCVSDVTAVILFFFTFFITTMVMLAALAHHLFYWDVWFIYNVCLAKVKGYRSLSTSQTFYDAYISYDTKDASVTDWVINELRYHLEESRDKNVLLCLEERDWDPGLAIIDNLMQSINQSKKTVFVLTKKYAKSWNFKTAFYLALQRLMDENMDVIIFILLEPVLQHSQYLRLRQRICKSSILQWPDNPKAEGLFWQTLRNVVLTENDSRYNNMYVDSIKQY
assay.explanation: HEK/293 TLR8 Cell Assay
Type: cell-based
experimental.setup: HEK cells, R848 agonist 30 uM final concentration, Steady-Glo readout; read-out: TLR8 potency
pIC50: −log10 of the molar value.
measure.name: pIC50

compound	subject.of.test	pIC50
CN(C)CCC(=O)N[C@@H]1C[C@H](C(F)(F)F)CN(c2ccc(C#N)c3nccnc23)C1	TLR8 (Homo sapiens, UniProt Q9NR97)	> 7.12
C[C@@H](C(=O)N[C@@H]1C[C@H](C(F)(F)F)CN(c2ccc(C#N)c3nccnc23)C1)N1CCN(C)CC1 (single isomer, unassigned)	TLR8 (Homo sapiens, UniProt Q9NR97)	> 7.12

Prompt: May I ask what pIC50 has been recorded for CC[C@@H](NC(=O)[C@H]1CN(c2ccc(C#N)c3nccnc23)C[C@@H](C)O1)C(N)=O ?
Completion: > 7.12

Prompt: Further, for CN1CCC(F)(CNC(=O)[C@@H]2CN(c3ccc(C#N)c4ncccc34)C[C@H](C(F)(F)F)O2)CC1 (single isomer, unassigned) ?
Completion: < 6.82

Prompt: Further, for CC(C(=O)N[C@@H]1C[C@H](C)CN(c2ccc(C#N)c3nccnc23)C1)N1CCN(C)CC1 (single isomer, unassigned) ?
Completion: > 7.12

Prompt: Further, for C[C@H]1C[C@@H](NC(=O)[C@@H]2COCCN2)CN(c2ccc(C#N)c3nccnc23)C1 ?
Completion: > 7.12

Prompt: Further, for C[C@@H]1CN(c2ccc(C#N)c3nccnc23)C[C@H](C(=O)N[C@@H]2CCN(CC3CC3)C2)O1 ?
Completion: > 7.12

Prompt: Further, for CCN(C)CCNC(=O)[C@H]1CN(c2cnc(C#N)c3ncccc23)C[C@@H](C)O1 ?
Completion: > 7.12

Prompt: Further, for C[C@@H]1CN(c2cnc(C#N)c3ncccc23)C[C@H](C(=O)NCC2(F)CNC2)O1 ?
Completion: > 7.12

Prompt: Further, for C[C@H]1C[C@@H](NC(=O)CC2CCN(C(=O)NC(C)(C)CO)CC2F)CN(c2cnc(C#N)c3ncccc23)C1 (some centres unmarked) ?
Completion: 6.82 to 7.12

Prompt: Further, for C[C@@H]1CN(c2cnc(C(F)(F)F)c3ncccc23)C[C@H](CN2CCN(C)CC2)O1 ?
Completion: 6.82 to 7.12

Prompt: Further, for C[C@@H]1CN(c2cnc(C#N)c3ncccc23)C[C@H](CNC(=O)[C@]2(F)CCCNC2)O1 (single isomer, unassigned) ?
Completion: > 7.12

Prompt: Further, for N#Cc1ccc(N2C[C@H](N)CC(F)(F)C2)c2cccnc12 (single isomer, unassigned) [Example 197] ?
Completion: > 7.12

Prompt: Further, for C[C@@H]1CN(c2ccc(C#N)c3nccnc23)C[C@H](C(=O)NC[C@@H](O)CN(C)C)O1 (single isomer, unassigned) ?
Completion: > 7.12

* * *

subject.of.test: TLR7 (Homo sapiens, UniProt Q9NYK1)
Sequence (Q9NYK1 27-1049): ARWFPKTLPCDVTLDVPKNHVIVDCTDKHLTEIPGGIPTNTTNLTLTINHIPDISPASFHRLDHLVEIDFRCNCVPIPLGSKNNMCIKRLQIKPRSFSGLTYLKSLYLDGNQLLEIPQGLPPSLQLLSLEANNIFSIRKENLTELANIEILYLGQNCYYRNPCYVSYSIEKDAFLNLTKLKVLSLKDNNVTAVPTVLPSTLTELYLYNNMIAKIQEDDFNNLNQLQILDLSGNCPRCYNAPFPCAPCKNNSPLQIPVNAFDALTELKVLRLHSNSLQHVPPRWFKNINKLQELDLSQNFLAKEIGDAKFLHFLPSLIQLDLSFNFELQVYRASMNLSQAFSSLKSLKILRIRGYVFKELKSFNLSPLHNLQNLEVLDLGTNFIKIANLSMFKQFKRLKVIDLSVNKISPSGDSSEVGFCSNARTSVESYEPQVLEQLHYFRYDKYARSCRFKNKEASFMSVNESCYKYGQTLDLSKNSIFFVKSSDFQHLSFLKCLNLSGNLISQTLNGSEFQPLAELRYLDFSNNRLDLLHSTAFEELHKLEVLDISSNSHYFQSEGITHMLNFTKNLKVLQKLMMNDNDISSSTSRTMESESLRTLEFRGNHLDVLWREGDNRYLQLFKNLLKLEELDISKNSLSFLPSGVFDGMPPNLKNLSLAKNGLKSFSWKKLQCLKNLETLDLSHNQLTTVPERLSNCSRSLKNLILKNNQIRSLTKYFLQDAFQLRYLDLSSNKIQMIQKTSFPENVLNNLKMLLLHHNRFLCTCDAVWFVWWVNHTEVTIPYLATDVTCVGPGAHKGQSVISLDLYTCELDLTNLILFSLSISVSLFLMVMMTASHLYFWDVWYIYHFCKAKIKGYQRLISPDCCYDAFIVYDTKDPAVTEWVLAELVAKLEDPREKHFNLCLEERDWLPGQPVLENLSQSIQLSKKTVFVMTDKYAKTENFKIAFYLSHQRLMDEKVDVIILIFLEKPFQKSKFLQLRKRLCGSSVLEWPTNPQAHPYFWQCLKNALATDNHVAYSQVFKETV
assay.explanation: HEK/293 TLR7 Cell Assay
experimental.setup: TLR7/NFKb HEK cells, R848 agonist 10 uM final concentration, Steady-Glo readout; read-out: TLR7 potency
pIC50: −log10 of the molar value. Counter-ions that a name gives are not always drawn.
measure.name: pIC50

compound	pIC50
Cc1ccc(N2C[C@@H](C)C[C@@H](n3ccnc3)C2)c2cccnc12	< 6.82
CN1CCC(O)(CC(=O)N[C@@H]2C[C@H](C(F)(F)F)CN(c3ccc(C#N)c4nccnc34)C2)CC1	6.82 to 7.12
Cc1ccc(N2C[C@@H](C)C[C@@H](NC(=O)CC3(O)CCN(C)CC3)C2)c2cccnc12 [Example 85, hydrochloride]	> 7.12
C[C@H]1C[C@@H](NC(=O)CC2CCN(CCO)CC2F)CN(c2cnc(C#N)c3ncccc23)C1 (some centres unmarked)	6.82 to 7.12
C[C@H]1C[C@@H](NCCNC(N)=O)CN(c2ccc(C(F)(F)F)c3ncccc23)C1	> 7.12
C[C@H]1C[C@@H](NC(=O)[C@@H](N)C(C)(C)O)CN(c2ccc(C#N)c3nccnc23)C1	> 7.12
C[C@H]1C[C@@H](NC(=O)[C@@H](N)C(C)(C)O)CN(c2ccc(C(F)(F)F)c3ncccc23)C1	6.82 to 7.12
CCN(C)CCNC(=O)[C@H]1CN(c2ccc(C#N)c3ncncc23)C[C@@H](C)O1	6.82 to 7.12

Prompt: # returns recorded pIC50 (system: TLR7 (Homo sapiens, UniProt Q9NYK1)) for CCN(C)CCNC(=O)[C@H]1CN(c2cnc(C#N)c3ncccc23)C[C@@H](C)O1
Completion: > 7.12

* * *

Reported pIC50 values are given for each entry in this list.
subject.of.test: TLR7 (Homo sapiens)
Sequence (Q9NYK1 27-1049): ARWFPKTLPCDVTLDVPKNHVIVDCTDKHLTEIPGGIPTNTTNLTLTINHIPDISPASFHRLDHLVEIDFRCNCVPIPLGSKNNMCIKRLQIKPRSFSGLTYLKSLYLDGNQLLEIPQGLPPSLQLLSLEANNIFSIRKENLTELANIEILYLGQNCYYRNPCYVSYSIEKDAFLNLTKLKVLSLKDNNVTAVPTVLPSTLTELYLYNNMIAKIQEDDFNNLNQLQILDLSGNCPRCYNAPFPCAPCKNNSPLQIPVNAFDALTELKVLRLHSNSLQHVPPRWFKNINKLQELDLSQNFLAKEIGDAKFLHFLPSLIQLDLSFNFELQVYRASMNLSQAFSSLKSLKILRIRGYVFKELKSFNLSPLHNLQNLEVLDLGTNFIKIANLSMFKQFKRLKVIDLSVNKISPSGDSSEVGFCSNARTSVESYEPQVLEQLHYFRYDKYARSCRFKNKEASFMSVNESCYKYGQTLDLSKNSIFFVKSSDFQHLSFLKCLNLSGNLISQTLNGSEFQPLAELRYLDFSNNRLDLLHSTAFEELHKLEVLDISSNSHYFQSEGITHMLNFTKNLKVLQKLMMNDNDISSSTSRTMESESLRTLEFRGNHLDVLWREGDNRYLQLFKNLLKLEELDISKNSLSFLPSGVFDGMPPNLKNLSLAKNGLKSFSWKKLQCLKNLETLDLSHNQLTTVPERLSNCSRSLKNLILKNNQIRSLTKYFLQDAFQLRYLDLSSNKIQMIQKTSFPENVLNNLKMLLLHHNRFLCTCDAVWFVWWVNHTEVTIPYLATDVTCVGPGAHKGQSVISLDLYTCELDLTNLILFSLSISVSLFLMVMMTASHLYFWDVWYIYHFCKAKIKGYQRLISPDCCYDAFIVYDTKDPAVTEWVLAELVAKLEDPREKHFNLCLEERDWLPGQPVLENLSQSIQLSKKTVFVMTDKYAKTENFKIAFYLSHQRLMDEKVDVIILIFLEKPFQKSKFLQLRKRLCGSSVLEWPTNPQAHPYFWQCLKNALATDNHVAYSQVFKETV
assay.explanation: HEK/293 TLR7 Cell Assay
experimental.setup: TLR7/NFKb HEK cells, R848 agonist 10 uM final concentration, Steady-Glo readout; read-out: TLR7 potency
pIC50: −log10 of the molar value.

compound	pIC50
C[C@@H]1CN(c2ccc(C#N)c3ncncc23)C[C@H](C(=O)NC2CCC(N3CCOCC3)CC2)O1 (some centres unmarked)	> 7.12

Prompt: May I ask what pIC50 has been recorded for COc1ncc(N2C[C@@H](C)C[C@@H](N)C2)c2nccnc12 ?
Completion: 6.82 to 7.12

Prompt: Further, for C[C@@H](O)[C@H](N)C(=O)N1CCC(CC(=O)N[C@@H]2C[C@H](C(F)(F)F)CN(c3ccc(C#N)c4ncccc34)C2)CC1 ?
Completion: < 6.82

Prompt: Further, for N#Cc1ccc(N2C[C@@H](C(=O)NC[C@@H](O)CO)O[C@@H](C(F)(F)F)C2)c2nccnc12 (single isomer, unassigned) ?
Completion: < 6.82

Prompt: Further, for C[C@@H]1CN(c2cnc(C(F)(F)F)c3ncccc23)C[C@H](CO)O1 ?
Completion: < 6.82

Prompt: Further, for C[C@@H]1CN(c2ccc(C#N)c3nccnc23)C[C@H](C(=O)N2CC(N3CC(C)(O)C3)C2)O1 ?
Completion: 6.82 to 7.12
